test system: esterase from hog's liver; assay: spot test: hydrolysis of substrate on buffer-oxidation agent paper, visual colour evaluation; assay type: biochemical; set-up: key: +: coloration; ++: strong coloration; +++: strong and rapid coloration; conditions: pH 9.0 fleece, potassium ferricyanide, enzyme about 1000 U/ml., ambient temperature
quantity_measured: Coloration pH 9

>  <chemical_smiles>
COc1cc(-c2nc(-c3ccc(N(C)C)cc3)c(-c3ccc(N(C)C)cc3)[nH]2)cc(OC)c1OC(C)=O

>  <result>
++

$$$$
>  <chemical_smiles>
COc1cc(-c2nc(-c3ccc(N(C)C)cc3)c(C)s2)cc(OC)c1OC(C)=O

>  <result>
++

$$$$
>  <chemical_smiles>
CCCCCCCC(=O)Oc1ccc(-c2nc(-c3ccc(N(C)C)cc3)c(C)[nH]2)cc1OC

>  <result>
+++

$$$$
>  <chemical_smiles>
CCC(=O)Oc1ccc(-c2nc(-c3ccc(N(C)C)cc3)c(C)[nH]2)cc1OC

>  <result>
++

$$$$

# return Coloration pH 9 for each item in the list
1. CCCCCCCCCCCC(=O)Oc1ccc(-c2nc(-c3ccc(N(C)C)cc3)c(C)[nH]2)cc1OC
2. COc1cc(-c2nc(-c3ccc(N(C)C)cc3)c(C)[nH]2)ccc1OC(C)=O

1: ++; 2: +++

* * *

tested on: alkaline phosphatase; assay: spot test: hydrolysis of substrate on buffer-oxidation agent paper, visual colour evaluation; format: biochemical; parameters: key: +: coloration; ++: strong coloration; +++: strong and rapid coloration; conditions: pH 9.0 fleece, potassium ferricyanide, enzyme about 1000 U/ml., ambient temperature
quantity_measured: Coloration pH 9

// known answers, use as guide
>  <chemical_smiles>
COc1cc(-c2nc(-c3ccc(N(C)C)cc3)c(C)o2)ccc1OP(=O)(O)O

>  <Coloration pH 9>
++

$$$$
>  <chemical_smiles>
COc1cc(-c2nc(-c3ccc(N(C)C)cc3)c(-c3ccc(N(C)C)cc3)o2)cc(OC)c1OP(=O)(O)O

>  <Coloration pH 9>
+++

$$$$
>  <chemical_smiles>
COc1cc(-c2nc(-c3ccc(N(C)C)cc3)c(-c3ccc(N(C)C)cc3)[nH]2)cc(OC)c1OP(=O)(O)O

>  <Coloration pH 9>
++

$$$$
>  <chemical_smiles>
COc1cc(-c2nc(-c3ccc(N(C)C)cc3)c(-c3ccccc3)[nH]2)cc(OC)c1OP(=O)(O)O

>  <Coloration pH 9>
+++

$$$$
>  <chemical_smiles>
COc1cc(-c2nc(-c3ccc(N(C)C)cc3)c(C)[nH]2)cc(OC)c1OP(=O)(O)O

>  <Coloration pH 9>
+++

$$$$

Now examine the next entry.
Request the reported Coloration pH 9 associated with COc1cc(-c2nc(-c3ccc(N(C)C)cc3)c(C)[nH]2)ccc1OP(=O)(O)O
++

* * *

tested on: alkaline phosphatase; experiment: spot test: hydrolysis of substrate on buffer-oxidation agent paper, visual colour evaluation; format: biochemical; parameters: key: +: coloration; ++: strong coloration; +++: strong and rapid coloration; details: pH 6.0 fleece, potassium ferricyanide, enzyme about 1000 U/ml., ambient temperature

>  <chemical_smiles>
COc1cc(-c2nc(-c3ccc(N(C)C)cc3)c(-c3ccc(N(C)C)cc3)o2)cc(OC)c1OP(=O)(O)O

>  <Coloration pH 6>
++

$$$$
>  <chemical_smiles>
COc1cc(-c2nc(-c3ccc(N(C)C)cc3)c(-c3ccc(N(C)C)cc3)[nH]2)cc(OC)c1OP(=O)(O)O

>  <Coloration pH 6>
+

$$$$
>  <chemical_smiles>
COc1cc(-c2nc(-c3ccc(N(C)C)cc3)c(-c3ccccc3)[nH]2)cc(OC)c1OP(=O)(O)O

>  <Coloration pH 6>
++

$$$$
>  <chemical_smiles>
COc1cc(-c2nc(-c3ccc(N(C)C)cc3)c(C)o2)ccc1OP(=O)(O)O

>  <Coloration pH 6>
+

$$$$

* * *

system: esterase from hog's liver; test: spot test: hydrolysis of substrate on buffer-oxidation agent paper, visual colour evaluation; type: biochemical; set-up: key: +: coloration; ++: strong coloration; +++: strong and rapid coloration; settings: pH 6.0 fleece, potassium ferricyanide, enzyme about 1000 U/ml., ambient temperature
quantity_measured: Coloration pH 6

>  <compound>
CCCC(=O)Oc1ccc(-c2nc(-c3ccc(N(C)C)cc3)c(C)[nH]2)cc1OC [Example 5b]

>  <tested_system>
esterase from hog's liver

>  <result>
++

$$$$
>  <compound>
CCC(=O)Oc1ccc(-c2nc(-c3ccc(N(C)C)cc3)c(C)[nH]2)cc1OC [Example 5a]

>  <tested_system>
esterase from hog's liver

>  <result>
+

$$$$
>  <compound>
COc1cc(-c2nc(-c3ccc(N(C)C)cc3)c(-c3ccc(N(C)C)cc3)[nH]2)cc(OC)c1OC(C)=O [Example 4d]

>  <tested_system>
esterase from hog's liver

>  <result>
++

$$$$
>  <compound>
COc1cc(-c2nc(-c3ccc(N(C)C)cc3)c(C)s2)cc(OC)c1OC(C)=O [Example 4b]

>  <tested_system>
esterase from hog's liver

>  <result>
+

$$$$
>  <compound>
CCCCCCCCCCCC(=O)Oc1ccc(-c2nc(-c3ccc(N(C)C)cc3)c(C)[nH]2)cc1OC [Example 5]

>  <tested_system>
esterase from hog's liver

>  <result>
+

$$$$
>  <compound>
COc1cc(-c2nc(-c3ccc(N(C)C)cc3)c(C)o2)ccc1OC(C)=O [Example 4a]

>  <tested_system>
esterase from hog's liver

>  <result>
+++

$$$$
>  <compound>
CCCCCCCC(=O)Oc1ccc(-c2nc(-c3ccc(N(C)C)cc3)c(C)[nH]2)cc1OC [Example 5d]

>  <tested_system>
esterase from hog's liver

>  <result>
++

$$$$
>  <compound>
COc1cc(-c2nc(-c3ccc(N(C)C)cc3)c(C)[nH]2)ccc1OC(C)=O [Example 4]

>  <tested_system>
esterase from hog's liver

>  <result>
++

$$$$

Now examine the next entry.
Request the reported Coloration pH 6 associated with CCCCC(=O)Oc1ccc(-c2nc(-c3ccc(N(C)C)cc3)c(C)[nH]2)cc1OC [Example 5c]
++

* * *

test system: esterase from hog's liver; experiment: spot test: hydrolysis of substrate on buffer-oxidation agent paper, visual colour evaluation; format: biochemical; design: key: +: coloration; ++: strong coloration; +++: strong and rapid coloration; conditions: pH 9.0 fleece, potassium ferricyanide, enzyme about 1000 U/ml., ambient temperature

>  <chemical_smiles>
CCCC(=O)Oc1ccc(-c2nc(-c3ccc(N(C)C)cc3)c(C)[nH]2)cc1OC

>  <Coloration pH 9>
+++

$$$$
>  <chemical_smiles>
COc1cc(-c2nc(-c3ccc(N(C)C)cc3)c(C)o2)ccc1OC(C)=O

>  <Coloration pH 9>
+++

$$$$
>  <chemical_smiles>
CCCCC(=O)Oc1ccc(-c2nc(-c3ccc(N(C)C)cc3)c(C)[nH]2)cc1OC

>  <Coloration pH 9>
++

$$$$

Entry source: patent US5292669A
